Could you please report measured IC50 for the items listed next?
# Assay Summary: Inhibition of Haemophilus influenzae phenylalanyl-tRNA synthetase
Give bare numbers, in µM.

Study these solved cases before continuing.
Compound	Property Name	Numeric Value
CC(=O)Nc1nnc(-c2ccc(OCc3cccc(Cl)c3)c(Cl)c2)o1	IC50	1.3
COC(=O)c1ccc(N(C)Cc2cccc(Cl)c2)c(C)c1	IC50	0.17

Consider now this further compound.
Looking up CC(CO)NC(=O)c1ccc(OCc2cccc(Cl)c2)c(Cl)c1 (stereo not given) , I see its IC50 listed as 29

----------
Field: Ki. Provide a value for each of the compounds that follow.
# Subject Of Test: Voltage-gated inwardly rectifying potassium channel KCNH2 (Homo sapiens, UniProt Q12809)
# Sequence (Q12809 whole entry): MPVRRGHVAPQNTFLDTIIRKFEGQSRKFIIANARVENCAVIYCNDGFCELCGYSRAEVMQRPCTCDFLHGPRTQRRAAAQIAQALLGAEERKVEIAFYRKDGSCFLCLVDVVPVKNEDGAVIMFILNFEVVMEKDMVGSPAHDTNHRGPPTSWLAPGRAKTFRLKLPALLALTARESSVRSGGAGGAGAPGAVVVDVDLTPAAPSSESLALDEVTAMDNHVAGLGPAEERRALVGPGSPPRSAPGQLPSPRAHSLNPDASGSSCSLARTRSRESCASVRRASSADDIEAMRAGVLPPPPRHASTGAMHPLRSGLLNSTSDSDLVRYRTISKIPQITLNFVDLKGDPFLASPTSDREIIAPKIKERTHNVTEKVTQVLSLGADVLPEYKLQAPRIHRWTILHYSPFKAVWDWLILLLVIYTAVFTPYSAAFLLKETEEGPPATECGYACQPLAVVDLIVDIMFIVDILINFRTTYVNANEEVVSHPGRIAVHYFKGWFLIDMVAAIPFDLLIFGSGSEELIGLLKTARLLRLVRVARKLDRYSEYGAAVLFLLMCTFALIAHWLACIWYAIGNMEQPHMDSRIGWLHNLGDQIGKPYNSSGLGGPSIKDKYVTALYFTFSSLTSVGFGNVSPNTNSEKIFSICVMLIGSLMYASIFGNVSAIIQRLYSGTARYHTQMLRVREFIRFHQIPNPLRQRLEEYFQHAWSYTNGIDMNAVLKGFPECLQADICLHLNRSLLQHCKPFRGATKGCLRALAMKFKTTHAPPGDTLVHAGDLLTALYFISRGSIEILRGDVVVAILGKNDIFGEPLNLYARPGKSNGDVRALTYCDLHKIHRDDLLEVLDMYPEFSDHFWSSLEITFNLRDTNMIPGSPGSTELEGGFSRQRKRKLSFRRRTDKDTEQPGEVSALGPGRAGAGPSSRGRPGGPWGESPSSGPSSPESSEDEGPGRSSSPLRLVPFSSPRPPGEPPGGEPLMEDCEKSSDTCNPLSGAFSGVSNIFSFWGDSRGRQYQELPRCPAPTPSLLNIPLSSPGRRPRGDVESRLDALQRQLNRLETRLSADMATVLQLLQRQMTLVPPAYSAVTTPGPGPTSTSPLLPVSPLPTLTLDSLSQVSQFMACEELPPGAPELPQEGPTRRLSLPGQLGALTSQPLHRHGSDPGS
# Assay Summary: Displacement of [3H]dofetilide from human ERG channel
Answers are plain numbers, in nM.

Compound	Subject Of Test	Ki / nM
Cc1cc(C(=O)N2CCN(C(=O)C3CCCO3)CC2)ccc1OCc1cccc(Cl)c1 (stereo not drawn)	Voltage-gated inwardly rectifying potassium channel KCNH2 (Homo sapiens, UniProt Q12809)	23.9

Now examine the next entry.
Fill in: Voltage-gated inwardly rectifying potassium channel KCNH2 (Homo sapiens, UniProt Q12809) Ki for CN1CCN(C(=O)c2ccc(OCc3cccc(Cl)c3)c(Cl)c2)CC1=O = 37.2

----------
# Assay Summary: Inhibition of Streptococcus pneumoniae phenylalanyl-tRNA synthetase
# Fulfilled = IC50 below 10 µM (exclusive); Not fulfilled = IC50 at/above 10 µM

Compound	Class Assignment
CC(=O)Nc1nnc(-c2ccc(OCc3cccc(Cl)c3)c(Cl)c2)o1	Not fulfilled
NC(=O)c1nnc(-c2cc(Cl)c(OCc3cccc(Cl)c3)cn2)o1	Not fulfilled
Cn1c(-c2cccc(Cl)c2)nc(=O)c2cc(C(=O)N3CCC(C(N)=O)CC3)ccc21	Not fulfilled
O=C(NCCN1CCOCC1)c1ccc(OCc2cccc(Cl)c2)c(Cl)c1	Not fulfilled
Cc1cc(C(=O)N2CCN(C)CC2)ccc1C(CO)c1cccc(Cl)c1 (stereo not given)	Not fulfilled

is_below(IC50, 10 µM) for COC(=O)c1ccc(CNc2cccc(Cl)c2)cc1 ?
Not fulfilled

Lab note: IC50 threshold 10 µM. Does this compound come in strictly under it? Clc1cccc(COc2ccc(-c3nnco3)cc2Cl)c1
Not fulfilled

Please let me know if CN1CCN(C(=O)c2ccc(C[S+]([O-])c3cccc(Cl)c3)c(Cl)c2)CC1=O (stereo not given) shows IC50 below 10 µM.
Not fulfilled

Is 10 µM strictly greater than the compound's reported IC50? compound: CSc1nnc(-c2ccc(OCc3cccc(Cl)c3)c(Cl)c2)o1
Not fulfilled

Regarding Nc1nnc(-c2cc(Cl)c(OCc3cccc(Cl)c3)cn2)o1 , kindly confirm whether its IC50 is beneath 10 µM.
Not fulfilled

For CN1CCN(C(=O)c2ccc(OCc3cccc(Cl)c3)c(Cl)c2)CC1 , is the recorded IC50 below the cut-off of 10 µM?
Fulfilled

Please check: IC50 for COC(=O)c1ccc(OCc2cccc(Cl)c2)cc1 , strictly under 10 µM or not?
Not fulfilled

Strictly below 10 µM in IC50? O=C(NC1CCC(O)CC1)c1cc(Cl)c(OCc2cccc(Cl)c2)cn1 (stereo not given)
Not fulfilled

Please check: IC50 for Clc1cccc(COc2cnc(-c3nnco3)cc2Cl)c1 , strictly under 10 µM or not?
Not fulfilled

Criterion: IC50 strictly below 10 µM. Is it met by CC(CO)NC(=O)c1ccc(OCc2cc(Cl)ccn2)c(Cl)c1 (stereo not given) ?
Not fulfilled
